Taken from patent US20210047304A1.

TEST_SYSTEM: BRD4 (BDI_K57-E168) (Homo sapiens)
EXPERIMENT_SUMMARY: TR-FRET bromodomain binding assay, BRD4 BDI
Field: label. Allowed values: Y (Ki < 2 µM) or N (Ki >= 2 µM).

Cc1cc(F)cc(C)c1Oc1ccc(C(C)(C)O)cc1-c1cn(C)c(=O)cc1O[C@H]1CC[C@H](N(C)C(=O)C2(C)CC2)CC1 : Y

INPUT: Given the entry Cc1cc(F)cc(C)c1Oc1ccc(C(C)(C)O)cc1-c1cn(C)c(=O)cc1O[C@H]1CC[C@H](N2NC(=O)CC2=O)CC1 , would its reported Ki be below 2 µM?
OUTPUT: N

INPUT: Dear colleague, could you confirm whether Ki of CC(=O)NC1CC2(C1)CC(Nc1cc(=O)n(C)cc1-c1cc(C(C)(C)O)ccc1Oc1c(C)cccc1C)C2 (centres unmarked) falls below 2 µM? Thanks.
OUTPUT: N

INPUT: Determine if C=CC(=O)N[C@H]1CC[C@H](Oc2cc(=O)n(C)cc2-c2cc(C(C)(C)O)ccc2Oc2c(C)cc(F)cc2C)CC1 shows Ki strictly lower than 2 µM.
OUTPUT: Y

INPUT: Threshold test, Ki < 2 µM: COCCN1CC(=O)N([C@H]2CC[C@H](Oc3cc(=O)n(C)cc3-c3cc(C(C)(C)O)ccc3Oc3c(C)cc(F)cc3C)CC2)C1=O
OUTPUT: N

INPUT: Would you kindly verify if Ki of Cc1cc(F)cc(C)c1Oc1ccc(C(C)(C)O)cc1-c1cn(C)c(=O)cc1O[C@H]1CC[C@H](N2C(=O)[C@@H](C)N(C)C2=O)CC1 is strictly less than 2 µM?
OUTPUT: N

INPUT: Quick check: does Cc1cc(F)cc(C)c1Oc1ccc(C(C)(C)O)cc1-c1cn(C)c(=O)cc1O[C@H]1CC[C@H](NC(=O)C2(CNC(=O)OC(C)(C)C)CC2)CC1 have Ki under 2 µM?
OUTPUT: N

---

TEST_SYSTEM: BRD4 (BDI_K57-E168) (Homo sapiens)
EXPERIMENT_SUMMARY: TR-FRET bromodomain binding assay, BRD4 BDI
ASSAY_READOUT: pKi
Please report pKi as the negative decimal logarithm of the molar concentration, giving only the number.

CCNC(=O)[C@H]1CC[C@@H](Oc2cc(=O)n(C)cc2-c2cc(C(C)(C)O)ccc2Oc2c(C)cc(F)cc2C)CC1 : 5.11

The compound listed as Cc1cc(F)cc(C)c1Oc1ccc(C(C)(C)O)cc1-c1cn(C)c(=O)cc1OC1CCC(C)(N2CCCC2=O)CC1 (stereo not shown) has a reported pKi of 6.05

The compound identified as CC(=O)N[C@H]1CC[C@H](Oc2cc(=O)n(C)cc2-c2cc(C(C)(C)O)cnc2Oc2c(C)cc(F)cc2C)CC1 registered its pKi at 5.77

pKi reading for Cc1cc(F)cc(C)c1Oc1ccc(C(C)(C)O)cc1-c1cn(C)c(=O)cc1O[C@H]1CC[C@H](NC(=O)C2CC2)CC1 : 5.55

---

TEST_SYSTEM: BRD4 (BDI_K57-E168) (Homo sapiens)
EXPERIMENT_SUMMARY: TR-FRET bromodomain binding assay, BRD4 BDI
ASSAY_READOUT: Ki

Worked cases, answers included:
CC(=O)N1CCC(Nc2cc(=O)n(C)cc2-c2cc(C(C)(C)O)ccc2Oc2c(C)cccc2C)C1 (stereo not drawn) : 1.55 µM
Cc1cc(F)cc(C)c1Oc1ccc(C(C)(C)O)cc1-c1cn(C)c(=O)cc1O[C@H]1CC[C@H](N2C(=O)CCCC2=O)CC1 : 9.88 µM
Cc1cc(F)cc(C)c1Oc1ccc(C(C)(C)O)cc1-c1cn(C)c(=O)cc1O[C@H]1CC[C@H](n2cnccc2=O)CC1 : > 13 µM
CCc1c(-c2cc(C(C)(C)O)ccc2Oc2c(C)cc(F)cc2C)c(O[C@H]2CC[C@H](N3CCCC3=O)CC2)cc(=O)n1C : > 13 µM
Cc1cc(F)cc(C)c1Oc1ccc(C(C)(C)O)cc1-c1cn(C)c(=O)cc1O[C@H]1CC[C@H](N2C(=O)c3ccccc3C2=O)CC1 : > 13 µM
Cc1cc(F)cc(C)c1Oc1ccc(C(C)(C)O)cc1-c1cn(C)c(=O)cc1O[C@H]1CC[C@H](n2nccc2O)CC1 : 4.66 µM
Cc1cc(F)cc(C)c1Oc1ccc(C(C)(C)O)cc1-c1cn(C)c(=O)cc1O[C@H]1CC[C@H](N2CCCOC2=O)CC1 : 2.25 µM
Cc1cc(F)cc(C)c1Oc1ccc(C(C)(C)O)cc1-c1cn(C)c(=O)cc1O[C@H]1CC[C@H](N2C(=O)CCC(C)(C)C2=O)CC1 : > 13 µM
Cc1cc(F)cc(C)c1Oc1ccc(C(C)(C)O)cc1-c1cn(C)c(=O)cc1O[C@H]1CC[C@H](NC(=O)N2CCOCC2)CC1 : 3.67 µM
CC(=O)N[C@H]1CC[C@H](Nc2cc(=O)n(C)cc2-c2cc(C(C)(C)O)ccc2Oc2c(C)cc(F)cc2C)CC1 : 2.89 µM

get_value(item= Cc1cc(F)cc(C)c1Oc1ccc(C(C)(C)O)cc1-c1cn(C)c(=O)cc1O[C@H]1CC[C@H](N2C(=O)CNC2=O)CC1 , readout=Ki) returns > 13 µM

The compound Cc1cc(F)cc(C)c1Oc1ccc(C(C)(C)O)cc1-c1cn(C)c(=O)cc1O[C@H]1CC[C@H](NNC(=O)OC(C)(C)C)CC1 showed Ki equal to 3.41 µM

The value of Ki measured for the compound Cc1cc(F)cc(C)c1Oc1ccc(C(C)(C)O)cc1-c1cn(C)c(=O)cc1O[C@H]1CC[C@H](N2CCNC2=O)CC1 turned out to be 1.81 µM

Sample CC(=O)C(=O)N[C@H]1CC[C@H](Oc2cc(=O)n(C)cc2-c2cc(C(C)(C)O)ccc2Oc2c(C)cc(F)cc2C)CC1 ; Ki observed: 2.43 µM

# Ki (compound: Cc1cc(F)cc(C)c1Oc1ccc(C(C)(C)O)cc1-c1cn(C)c(=O)cc1O[C@H]1CC[C@@H](C(C)(C)O)CC1 ) is > 13 µM

---

Measured pKi, listed per entry for reference.
TEST_SYSTEM: BRD4 (BDI_K57-E168) (Homo sapiens)
EXPERIMENT_SUMMARY: TR-FRET bromodomain binding assay, BRD4 BDI
pKi: −log10 of the molar value.

Examples from the recorded data:
Cc1cc(F)cc(C)c1Oc1ccc(C(C)(C)O)cc1-c1cn(C)c(=O)cc1O[C@H]1CC[C@H](NC(=O)C2(C)CC2)CC1 : < 4.89
Cc1cc(F)cc(C)c1Oc1ccc(C(C)(C)O)cc1-c1cn(C)c(=O)cc1O[C@H]1CC[C@H](N2NCCC2=O)CC1 : < 4.89
Cc1cc(F)cc(C)c1Oc1ccc(C(C)(C)O)cc1-c1cn(C)c(=O)cc1O[C@H]1CC[C@@H](C(=O)O)CC1 : < 4.89

Now turn to the next compound.
pKi measured on CC(=O)NC1CCC(C)(Oc2cc(=O)n(C)cc2-c2cc(C(C)(C)O)ccc2Oc2c(C)cc(F)cc2C)CC1 (stereo not shown) = < 4.89

---

Some compounds, each annotated with its measured pKi.
TEST_SYSTEM: UniProt O60885
EXPERIMENT_SUMMARY: TR-FRET bromodomain binding assay, BRD4 BDI
pKi: −log10 of the molar value.

Worked examples follow.
Cc1cc(F)cc(C)c1Oc1ccc(C(C)(C)O)cc1-c1cn(C)c(=O)cc1O[C@H]1CC[C@H](N2C(=O)CN(C)C2=O)CC1 : 5.33
Cc1cc(F)cc(C)c1Oc1ccc(C(C)(C)O)cc1-c1cn(C)c(=O)cc1O[C@H]1CC[C@H](N2C(=O)C3COCCN3C2=O)CC1 (relative stereo) : < 4.89
Cc1cc(F)cc(C)c1Oc1ccc(C(C)(C)O)cc1-c1cn(C)c(=O)cc1O[C@H]1CC[C@H](NC(=O)C23CC(NC(=O)OC(C)(C)C)(C2)C3)CC1 (relative stereo) : < 4.89

Attention now turns to another entry.
Record Cc1cc(F)cc(C)c1Oc1ccc(C(C)(C)O)cc1-c1cn(C)c(=O)cc1O[C@H]1CC[C@H](N2C(=O)O[C@@H](C)C2=O)CC1 . Reported pKi: < 4.89

---

# Lookup of reported pKi keyed by entry
TEST_SYSTEM: BRD4 (BDI_K57-E168) (Homo sapiens, UniProt O60885)
EXPERIMENT_SUMMARY: TR-FRET bromodomain binding assay, BRD4 BDI
# reply with the number alone; pKi is -log10 of concentration in mol/L

Cc1cc(F)cc(C)c1Oc1ccc(C(C)(C)O)cc1-c1cn(C)c(=O)cc1O[C@H]1CC[C@H](N2C(=O)[C@H]3CCCN3C2=O)CC1 [Example 138] : 4.89
COC(=O)N[C@H]1CC[C@H](Oc2cc(=O)n(C)cc2-c2cc(C(C)(C)O)ccc2Oc2c(C)cc(F)cc2C)CC1 [Example 4] : 5.84
Cc1cc(F)cc(C)c1Oc1ccc(C(C)(C)O)cc1-c1cn(C)c(=O)cc1O[C@H]1CC[C@H](N2CCCC2=O)CC1 [Example 24] : 5.54
Cc1cc(F)cc(C)c1Oc1ccc(C(C)(C)O)cc1-c1cn(C)c(=O)cc1O[C@H]1CC[C@H](N2CCOCC2=O)CC1 [Example 40] : 5.69
Cc1cc(F)cc(C)c1Oc1ccc(C(C)(C)O)cc1-c1cn(C)c(=O)cc1O[C@H]1CC[C@H](C(N)=O)CC1 [Example 102] : 5.40
Cc1cc(F)cc(C)c1Oc1ccc(C(C)(C)O)cc1-c1cn(C)c(=O)cc1O[C@H]1CC[C@H](NC(=O)C2(C#N)CC2)CC1 [Example 85] : 5.64

pKi in this record for COCCCN(C(=O)C1(C)CC1)[C@H]1CC[C@H](Oc2cc(=O)n(C)cc2-c2cc(C(C)(C)O)ccc2Oc2c(C)cc(F)cc2C)CC1 [Example 65] : 5.73
